Reference for the values: patent US20250042994A1

- measurement-target: T1, Human CD19-his protein (human, UniProt P15391 20-291)
- T1 construct: bought protein; also called human CD19 protein; recombinant human CD19-His; not shown: His tag
- T1 sequence (looked up): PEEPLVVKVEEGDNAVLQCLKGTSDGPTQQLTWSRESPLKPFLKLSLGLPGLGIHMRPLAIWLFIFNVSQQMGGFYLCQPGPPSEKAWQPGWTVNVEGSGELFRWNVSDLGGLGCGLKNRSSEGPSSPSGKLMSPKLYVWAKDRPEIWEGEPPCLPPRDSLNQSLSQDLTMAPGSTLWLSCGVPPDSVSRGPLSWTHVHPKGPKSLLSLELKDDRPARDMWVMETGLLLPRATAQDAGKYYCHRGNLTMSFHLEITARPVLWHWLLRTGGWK
- assay-comment: ELISA, antibody at 0.01 nM
- Experimental: Human CD19-his protein (purchased from ACROBiosystems, catalog number: CD9-H52H2) was diluted with PBS to a final concentration of 4 μg/mL, and then added to a 96-well ELISA plate at 100 μl/well. […] The OD450 nm values were read by an ELISA microplate reader (Multimode Plate Reader, EnSight, purchased from Perkin Elmer).
observation-type: OD450
Form rule: numeric answer, no unit written next to it.

INSERT INTO assay_data (binder, reading) VALUES
  ('F4.49.11 (antibody, human IgG1, V domains shown, human-murine chimeric antibody, human IgG1) VH: DVQLRASGPGLVKPSQSLSLTCSVTGYSITSGYYWNWIRQFPGNKLEWMGCISYDGTNNYNPSLKNRISFTRDTSKNQFFLNLNSVTTEDSATYYCARRVYYRYDGVVDYWGQGTSVTVSS VL: ENVLTQSPAIMSASPGEKVTMTCSASSSVSYIHWYQQKSSTAPKLWIYDTSKLASGVPGRFSGSRSRNSYSLTISSMEAEDVATYYCFQGSGYPLTFGSGTKLEIK', 0.07);

Need OD450 of F3.3.10 (antibody, human IgG1, V domains shown, human-murine chimeric antibody, human IgG1) VH: DVQLQESGPGLAKLSQSLSLTCSVTGYSITSGYYWNWIRQFPGNKLEWMGHISYDGNNNYNPSLKNRISITRDTSKNQFFLKLNSVTTEDTATYYCARENYSNYYFDYWGQGTTLTVSS VL: DIVLTQSPASLAVSLGQRATISCRASQSVSKSSYTYIHWYQQKPGQPPKLLIKYASILQSGVPARFSGSGSGTDFTLNFHPVEEEDTATYYCQHSWEIPYTFGGGTKLEIK , thanks. 0.05
